- target.system: Glycogen synthase kinase-3 alpha (Homo sapiens)
- Sequence (P49840 whole entry): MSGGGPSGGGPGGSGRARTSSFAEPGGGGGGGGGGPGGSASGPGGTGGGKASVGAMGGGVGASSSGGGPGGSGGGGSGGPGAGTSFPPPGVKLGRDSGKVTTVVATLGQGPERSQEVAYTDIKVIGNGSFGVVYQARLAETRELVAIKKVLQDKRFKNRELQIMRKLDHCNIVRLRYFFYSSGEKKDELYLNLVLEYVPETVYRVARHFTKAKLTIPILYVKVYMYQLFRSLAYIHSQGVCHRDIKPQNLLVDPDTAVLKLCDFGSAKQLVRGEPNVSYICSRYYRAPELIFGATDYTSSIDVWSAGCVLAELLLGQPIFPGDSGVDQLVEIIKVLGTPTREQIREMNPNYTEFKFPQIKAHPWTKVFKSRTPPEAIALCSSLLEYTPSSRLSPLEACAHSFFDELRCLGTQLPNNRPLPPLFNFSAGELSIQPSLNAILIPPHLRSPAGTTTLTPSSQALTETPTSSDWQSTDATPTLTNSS
pIC50: −log10 of the molar value.
quantity.name: pIC50

Below are worked cases with known answers.
CCC1(c2cccc(C(F)(F)F)c2)C2=C(N=NC2)NC2=C1C(=O)N(C)C2(C)C (stereo unspecified) ... > 7.00
CC1(C)CC(=O)C2=C(C1)NC1=C(CN=N1)C21CCC(C(=O)N2CCCC2)CC1 (stereo unspecified) [US20250313563, Compound 945394] ... 6.00 to 7.00
CC[C@]1(c2cccc(N3CCCCC3)c2)C2=C(CC(C)(C)CC2=O)NC2N=NC(C)=C21 (stereo partly specified) ... 6.00 to 7.00
CC1(C)CC(=O)C2=C(C1)NC1=C(CN=N1)C21CCN(S(=O)(=O)c2ccc(OC(F)F)cc2)CC1 ... > 7.00
CCCC(=O)N1CC2(C1)CC1(CO2)C2=C(N=NC2)NC2=C1C(=O)CC(C)(C)C2 (stereo unspecified) ... > 7.00
CC[C@]1(c2ccccc2)C2=CN=NC2NC2=C1C(=O)C[C@]1(CCOC1)C2 (stereo partly specified) ... 6.00 to 7.00
CCC1(c2ccccc2)C2=C(N=NC2)NC2=C1C(=O)C1CCC21 (stereo unspecified) ... 5.30 to 6.00
Cc1cccc(S(=O)(=O)N2CC[C@@]3(C2)C2=C(N=NC2)NC2=C3C(=O)CC(C)(C)C2)c1 [US20250313563, Compound 943489] ... > 7.00

(Q) Hello, I am looking for reported pIC50 with Glycogen synthase kinase-3 alpha (Homo sapiens) for CC[C@]1(c2cccc(Br)c2)C2=CN=NC2NC2=C1C(=O)C[C@@H](C)C2 (stereo partly specified) . Could you help?
(A) < 5.30

(Q) Hello, I am looking for reported pIC50 with Glycogen synthase kinase-3 alpha (Homo sapiens) for CCC1(c2cccc(C3CCOCC3)c2)C2=CN=NC2NC2=C1C(=O)CC(C)(C)C2 (stereo unspecified) . Could you help?
(A) > 7.00

(Q) Hello, I am looking for reported pIC50 with Glycogen synthase kinase-3 alpha (Homo sapiens) for CC[C@]1(c2cccc(C(F)(F)F)c2)C2=CN=NC2NC2=C1C(=O)N(C(C)(C)C)CC2 (stereo partly specified) . Could you help?
(A) < 5.30

(Q) Hello, I am looking for reported pIC50 with Glycogen synthase kinase-3 alpha (Homo sapiens) for CC[C@@]1(c2cccc(-c3cc(C)nc4c3cnn4C)c2)C2=CN=NC2NC2=C1C(=O)NC(C)(C)C2 (stereo partly specified) . Could you help?
(A) 5.30 to 6.00

(Q) Hello, I am looking for reported pIC50 with Glycogen synthase kinase-3 alpha (Homo sapiens) for CC[C@@]1(c2cccc(S(=O)(=O)C3CC3)c2)C2=CN=NC2NC2=C1C(=O)NC(C)(C)C2 (stereo partly specified) . Could you help?
(A) > 7.00

(Q) Hello, I am looking for reported pIC50 with Glycogen synthase kinase-3 alpha (Homo sapiens) for CCC1(c2cccc(N(C)c3ccc(C)nc3)c2)C2=CN=NC2NC2=C1C(=O)CC(C)(C)C2 (stereo unspecified) . Could you help?
(A) 6.00 to 7.00

(Q) Hello, I am looking for reported pIC50 with Glycogen synthase kinase-3 alpha (Homo sapiens) for `CN1CC2(C1)C1=C(N=NC1)NC1=C2C(=O)CC(C)(C)C1` . Could you help?
(A) > 7.00

(Q) Hello, I am looking for reported pIC50 with Glycogen synthase kinase-3 alpha (Homo sapiens) for CCC1(c2cccc(-c3c(C)nnn3C)c2)C2=C(N=NC2)NC2=C1C(=O)C(C)(C)C2 (stereo unspecified) . Could you help?
(A) 6.00 to 7.00

(Q) Hello, I am looking for reported pIC50 with Glycogen synthase kinase-3 alpha (Homo sapiens) for Cn1cncc1-c1cccc([C@]2(C)C3=C(CC(C)(C)CC3=O)NC3=C2C(CC(C)(C)C)N=N3)c1 (stereo partly specified) . Could you help?
(A) 6.00 to 7.00

(Q) Hello, I am looking for reported pIC50 with Glycogen synthase kinase-3 alpha (Homo sapiens) for CC[C@]1(c2cccc(C)c2)C2=C(CC(C)(C)CC2=O)NC2N=NC(C(F)(F)F)=C21 (stereo partly specified) . Could you help?
(A) 5.30 to 6.00

(Q) Hello, I am looking for reported pIC50 with Glycogen synthase kinase-3 alpha (Homo sapiens) for COC(=O)C1CCC2(CC1)C1=C(N=NC1)NC1=C2C(=O)CC(C)(C)C1 (stereo unspecified) [US20250313563, Compound 918270] . Could you help?
(A) 6.00 to 7.00

(Q) Hello, I am looking for reported pIC50 with Glycogen synthase kinase-3 alpha (Homo sapiens) for CCC1(c2cccc(S(=O)(=O)C3CCOCC3)c2)C2=CN=NC2NC2=C1C(=O)CC(C)(C)C2 (stereo unspecified) . Could you help?
(A) > 7.00

(Q) Hello, I am looking for reported pIC50 with Glycogen synthase kinase-3 alpha (Homo sapiens) for CC[C@@]1(c2cccc(-c3ccnc4ccc(Cl)cc34)c2)C2=CN=NC2NC2=C1C(=O)N(C)C(C)(C)C2 (stereo partly specified) . Could you help?
(A) > 7.00

(Q) Hello, I am looking for reported pIC50 with Glycogen synthase kinase-3 alpha (Homo sapiens) for CC[C@]1(c2cccc(-c3ccnc(N4CCCCC4)c3)c2)C2=CN=NC2NC2=C1C(=O)NC(C)(C)C2 (stereo partly specified) . Could you help?
(A) 5.30 to 6.00

(Q) Hello, I am looking for reported pIC50 with Glycogen synthase kinase-3 alpha (Homo sapiens) for CC[C@]1(c2cccc(-c3ccnc(C)c3)c2)C2=CN=NC2NC2=C1C(=O)NC1(CCCC1)C2 (stereo partly specified) . Could you help?
(A) > 7.00

(Q) Hello, I am looking for reported pIC50 with Glycogen synthase kinase-3 alpha (Homo sapiens) for CC[C@]1(c2cccc(-c3ccnn3C)c2)C2=CN=NC2NC2=C1C(=O)NC1(CCS(=O)(=O)CC1)C2 (stereo partly specified) . Could you help?
(A) 5.30 to 6.00

(Q) Hello, I am looking for reported pIC50 with Glycogen synthase kinase-3 alpha (Homo sapiens) for CC[C@@]1(c2cccc(C(F)(F)F)c2)C2=CN=NC2NC2=C1C(=O)N[C@@H](c1ccccc1)C2 (stereo partly specified) . Could you help?
(A) < 5.30

(Q) Hello, I am looking for reported pIC50 with Glycogen synthase kinase-3 alpha (Homo sapiens) for CC[C@@]1(c2cccc(C3=C4CC=C(Cl)C=C4N=CC3)c2)C2=CN=NC2NC2=C1C(=O)NC(C)(C)C2 (stereo partly specified) . Could you help?
(A) > 7.00
